# System: 242566-281-R-J2-PDC complex spheroid viability
# ASSAY NAME: Anticancer human tumor 242566-281-R-J2-PDC patient-derived pancreatic carcinoma cell line growth inhibition [RAS]
# RUN PARAMETERS: second compound 0.00949 µM; first compound 0.0949 µM; active compounds read low
PROPERTY: viability, T/C (%)

CCc1c2c(nc3ccc(O)cc13)-c1cc3c(c(=O)n1C2)COC(=O)[C@]3(O)CC + CCn1c(-c2cccnc2C(C)OC)c2c3cc(ccc31)N1CCOC(CC(NC(=O)C(C(C)C)N(C)C(=O)C3(F)CCN(C(=O)C#CC(C)(C)N(C)C)CC3)C(=O)N3CCCC(N3)C(=O)OCC(C)(C)C2)C1 :: 20.7
CCc1c2c(nc3ccc(O)cc13)-c1cc3c(c(=O)n1C2)COC(=O)[C@]3(O)CC + CCn1c(-c2cc(N3CCN(C)CC3)cnc2C(C)OC)c2c3cc(ccc31)-c1csc(n1)CC(NC(=O)C1CC1C)C(=O)N1CCCC(N1)C(=O)OCC(C)(C)C2 :: 17.9
CC1(C)CCC(Nc2ncc(C(F)(F)F)c(-c3c[nH]c4c(P(C)(C)=O)c(C#N)ccc34)n2)CN1 (centres undefined) + CCn1c(-c2cccnc2C(C)OC)c2c3cc(ccc31)N1CCOC(CC(NC(=O)C(C(C)C)N(C)C(=O)C3(F)CCN(C(=O)C#CC(C)(C)N(C)C)CC3)C(=O)N3CCCC(N3)C(=O)OCC(C)(C)C2)C1 :: 90.5
CC1(C)CCC(Nc2ncc(C(F)(F)F)c(-c3c[nH]c4c(P(C)(C)=O)c(C#N)ccc34)n2)CN1 (centres undefined) + CCn1c(-c2cc(N3CCN(C)CC3)cnc2C(C)OC)c2c3cc(ccc31)-c1csc(n1)CC(NC(=O)C1CC1C)C(=O)N1CCCC(N1)C(=O)OCC(C)(C)C2 :: 35.5

----------
# System: 242566-281-R-J2-PDC complex spheroid viability
# ASSAY NAME: Anticancer human tumor 242566-281-R-J2-PDC cell line growth inhibition [RAS];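 further: spheroids exposed to compound for 7 days before readout; 100% = DMSO vehicle control wells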
# RUN PARAMETERS: second compound 0.1 µM; first compound 1 µM; active compounds read low
viability, T/C strictly less than 70% = true. Otherwise false.

CC(Nc1ccc2c(c1)OCCn1cc(N3C(=O)OCC3C(F)F)nc1-2)C(N)=O (stereo not given) + C=CC(=O)N1CCN(c2nc(OCC3CCCN3C)nc3c(F)c(-c4nc(N)cc(C)c4C(F)(F)F)c(Cl)cc23)C(C)C1 :: true
C[C@@H](NC(=O)c1ncnc(N)c1Cl)c1ncc(C(=O)Nc2cc(C(F)(F)F)c(Cl)cn2)s1 + C=CC(=O)N1CCN(c2nc(OCC3CCCN3C)nc3c(F)c(-c4nc(N)cc(C)c4C(F)(F)F)c(Cl)cc23)C(C)C1 :: false
C=CC(=O)Nc1cc(Nc2nccc(-c3cn(C)c4ccccc34)n2)c(OC)cc1N(C)CCN(C)C + C=CC(=O)N1CCN(c2nc(OCC3CCCN3C)nc3c(F)c(-c4nc(N)cc(C)c4C(F)(F)F)c(Cl)cc23)C(C)C1 :: false
C=CC(=O)Nc1cc(Nc2nccc(-c3cn(C)c4ccccc34)n2)c(OC)cc1N(C)CCN(C)C + C#Cc1c(F)ccc2cc(O)cc(-c3ncc4c(N5CC6CCC(C5)N6)nc(OCC56CCCN5CC(F)C6)nc4c3F)c12 :: true
O=C(c1ccc(F)c(F)c1Nc1ccc(I)cc1F)N1CC(O)([C@@H]2CCCCN2)C1 + C#Cc1c(F)ccc2cc(O)cc(-c3ncc4c(N5CC6CCC(C5)N6)nc(OCC56CCCN5CC(F)C6)nc4c3F)c12 :: true
CC1(O)CCCC1n1c(=O)c(C(F)F)cc2cnc(NC3CCN(S(C)(=O)=O)CC3)nc21 (stereo not given) + C=CC(=O)N1CCN(c2nc(OCC3CCCN3C)nc3c(F)c(-c4nc(N)cc(C)c4C(F)(F)F)c(Cl)cc23)C(C)C1 :: false
Nc1ccn(C2OC(CO)C(O)C2(F)F)c(=O)n1 (stereo not given) + C=CC(=O)N1CCN(c2nc(OCC3CCCN3C)nc3c(F)c(-c4nc(N)cc(C)c4C(F)(F)F)c(Cl)cc23)C(C)C1 :: true
O=C(c1ccc(F)c(F)c1Nc1ccc(I)cc1F)N1CC(O)([C@@H]2CCCCN2)C1 + C=CC(=O)N1CCN(c2nc(OCC3CCCN3C)nc3c(F)c(-c4nc(N)cc(C)c4C(F)(F)F)c(Cl)cc23)C(C)C1 :: true
NC1c2ccccc2OC12CCN(c1cnc3c(N4CCCc5ncccc54)n[nH]c3n1)CC2 (stereo not given) + C=CC(=O)N1CCN(c2nc(OCC3CCCN3C)nc3c(F)c(-c4nc(N)cc(C)c4C(F)(F)F)c(Cl)cc23)C(C)C1 :: true

# credit: PubChem BioAssay AID2060910
